Target: rat MCH1 receptor (Rattus norvegicus, UniProt P97639)
Construct: operatively linked to DNA encoding the rat MCH1 receptor so as to permit expression thereof
Sequence (P97639 whole entry): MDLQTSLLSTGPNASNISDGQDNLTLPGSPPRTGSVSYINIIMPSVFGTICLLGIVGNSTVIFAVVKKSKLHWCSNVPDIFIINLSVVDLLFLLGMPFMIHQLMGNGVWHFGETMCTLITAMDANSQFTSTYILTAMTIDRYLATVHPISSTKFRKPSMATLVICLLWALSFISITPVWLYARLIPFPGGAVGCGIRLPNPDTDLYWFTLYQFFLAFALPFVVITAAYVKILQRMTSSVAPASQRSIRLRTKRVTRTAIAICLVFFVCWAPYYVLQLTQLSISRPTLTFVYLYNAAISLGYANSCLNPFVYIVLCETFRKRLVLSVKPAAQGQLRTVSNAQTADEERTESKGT
Assay: Radioligand binding assay at cloned rat MCH1 receptor ([3H]Compound A)
Conditions: cloned rat MCH1, Peakr293 cell membranes, 0.08 nM [3H]Compound A, 25° C., 90 minutes; read-out: Ki(MCH-1)
Ki overview
Use nM as the unit, but write only the number.

Take a look at these entries with their results.
[ask] Entry CCCC(=O)Nc1cccc(C2CCN(CCCNC(=O)C(C)(c3ccccc3)c3ccccc3)CC2)c1 : reported Ki = ?
[reply] 4.3

[ask] For CC(C)C(=O)Nc1cccc(C2CCN(CCCNC(=O)C(C)c3ccc(F)cc3)CC2)c1 (centres unmarked) then?
[reply] 34.3

[ask] For CCCC(=O)Nc1cc(C2CCN(CCCNC(=O)C(C)(C)c3ccc(Cl)cc3)CC2)ccc1F then?
[reply] 50.4

[ask] For O=C(CC(c1ccccc1)c1ccccc1)NCCCN1CCC(c2cccc(NC(=O)C3CC3)c2)CC1 then?
[reply] 62

[ask] For CCC(=O)Nc1cccc(C2CCN(CCCNC(=O)C3(c4ccc(Cl)cc4)CCC3)CC2)c1 then?
[reply] 45.9

Further cases:
[ask] Entry CC(C(=O)NCCCN1CCC(c2cccc(NC(=O)C3CC3)c2)CC1)c1ccc(Cl)cc1 (centres unmarked) : reported Ki = ?
[reply] 18.9

[ask] For CC(C)C(=O)Nc1cc(C2CCN(CCCNC(=O)C(C)(C)c3ccc(Cl)cc3)CC2)ccc1F then?
[reply] 14.8

[ask] For CC(C)C(=O)Nc1cccc(C2CCN(CCCNC(=O)C3(c4ccc(Cl)cc4)CCCCC3)CC2)n1 then?
[reply] 9.9

---

Molecular target: rat MCH1 receptor (Rattus norvegicus, UniProt P97639)
Construct: operatively linked to DNA encoding the rat MCH1 receptor so as to permit expression thereof
Experiment: Radioligand binding assay at cloned rat MCH1 receptor ([3H]Compound A)
Conditions: cloned rat MCH1, Peakr293 cell membranes, 0.08 nM [3H]Compound A, 25° C., 90 minutes; read-out: Ki(MCH-1)
pKi: −log10 of the molar value.
// false strictly below 8 in pKi; true otherwise

Some entries whose results are on file:
[ask] Does the reported pKi for Nc1cccc(C2CCN(CCCNC(=O)C(c3ccccc3)c3ccccc3)CC2)c1 [Example 152] fall at or above the 8 mark?
[reply] false

[ask] For Cc1ccc(NC(=O)C(C)C)cc1C1CCN(CCCNC(=O)C2(c3ccc(F)cc3)CCCCC2)CC1 [Example 92] then?
[reply] true

Further cases:
[ask] Does the reported pKi for CCCC(=O)Nc1cccc(C2CCN(CCCNC(=O)C3(c4ccc(Cl)cc4)CCC3)CC2)c1 [Example 106] fall at or above the 8 mark?
[reply] false

[ask] For CCCC(=O)Nc1ccc(F)c(C2CCN(CCCNC(=O)C(c3ccccc3)c3ccccc3)CC2)c1 [Example 25] then?
[reply] true

[ask] For CCCC(=O)Nc1cccc(C2CCN(CCCNC(=O)C(c3ccc(Cl)cc3)c3ccc(Cl)cc3)CC2)c1 [Example 53] then?
[reply] true

[ask] For CCCC(=O)Nc1cc(C2CCN(CCCNC(=O)C(c3ccc(F)cc3)c3ccc(F)cc3)CC2)ccc1F [Example 104] then?
[reply] true

[ask] For CC(=O)Nc1cccc(C2CCN(CCCNC(=O)C3(c4ccc(F)cc4)CCCC3)CC2)c1 [Example 72] then?
[reply] false

Reference source: patent US20060217418A1
